These measurements were taken from patent US20250333397A1.

Tested on: Target C mRNA
Assay: RT-qPCR splicing assay panel, Target C canonical junction (CJ) mRNA
Format: cell-based, human
Settings: Homo sapiens, Table 4B; gene panel; read-out: Target C (IC50, decrease in CJ mRNA levels)
// IC50 lookup, one value per entry

These recorded examples may help you get a feel for the data.
> print(dat)
                                   compound  target.or.test.system  quantity  reported.measurement
1  COc1cc2cc(-c3ccc(N4CCC(NC(C)(C)C)C4)nn3)c(O)cc2nn1 (stereo not shown)          Target C mRNA      IC50      1000 to 10000 nM
2  Cc1ncc2cc(-c3ccc(N4CCC(NC(C)(C)C)C4)nn3)c(O)cc2n1 (stereo not shown)          Target C mRNA      IC50            > 10000 nM
3  Cc1nc2cc(O)c(-c3cnc(N4C[C@@H](C)N[C@@H](C5CC5)C4)nn3)cc2o1          Target C mRNA      IC50      1000 to 10000 nM

Consider now this further compound.
State its IC50 on Target C mRNA: `Cc1nc2cc(O)c(-c3ccc(N4CC[C@@H](NC(C)(C)C(C)C)C4)nn3)cc2o1`
100 to 1000 nM

---

Listed next: entries and their corresponding IC50.
System: HTT mRNA
Experiment: RT-qPCR splicing assay, HTT canonical (CJ) and alternative (AJ) junction mRNA
Type: cell-based, human
Conditions: Homo sapiens, 24 h, Table 3A; A673 or K562 cells, 24 h treatment; read-out: HTT CJ (IC50, decrease in CJ mRNA)

Field: example entries. Status: answers known.
> print(dat)
                                   compound  reported.measurement
1  COc1nc(-c2cnc(N3CCC(NC4CCC4)C3)nn2)ccc1-c1cnc(C)s1 (stereo not shown) [Compound 421]        100 to 1000 nM
2  COc1cc(-c2ccc(-c3ccc(N4CC[C@H](N[C@H]5C[C@H](F)C5)C4)nn3)c(O)c2)ncn1 [Compound 426]        100 to 1000 nM
3  Cc1ncc(-c2ccc(-c3ccc(N4CC[C@H](N(C)C5CCC5)C4)nn3)c(O)c2)s1 [Compound 268]        100 to 1000 nM

Consider the record given below.
Which IC50 value belongs to COc1cncc(-c2cc(O)c(-c3ccc(N4CC[C@@H](NC5CCC5)C4)nn3)cc2F)c1 [Compound 225] ?
> 10000 nM

---

Tested on: HTT mRNA
Assay: RT-qPCR splicing assay, HTT canonical (CJ) and alternative (AJ) junction mRNA
Type: cell-based, human
Conditions: Homo sapiens, 24 h, Table 3A; A673 or K562 cells, 24 h treatment; read-out: HTT CJ (IC50, decrease in CJ mRNA)
pIC50: −log10 of the molar value.
quantity: pIC50

> print(dat)
                                   molecule  reported.measurement
1  COc1cc(-c2ccc(-c3ccc(N4CC[C@@H](N(C)C(C)(C)C)C4)nn3)c(O)c2)cnn1 [Compound 336]                > 7.00
2  CC1(C)CC(Oc2nnc(-c3ccc(-c4cn[nH]c4)cc3O)cc2C#N)CC(C)(C)N1 [Compound 423]          5.00 to 6.00
3  Cc1ncc(-c2cc(O)c(-c3ccc(N4CC[C@@H](N[C@H](C)C5CC5)C4)nn3)cc2F)s1 [Compound 418]                > 7.00

# query: pIC50 of entry COc1nc(-c2ccc(N3CCC(NC(C)(C)C)C3)nn2)ccc1-c1cnc(C)s1 (stereo not shown) [Compound 355]
> 7.00

Entry COc1cc(-c2ccc(-c3ccc(N4CC[C@H](NC5(CF)CC5)C4)nn3)c(O)c2)cnn1 [Compound 241] please
> 7.00
